System: Streptococcus sp.
Assay: in vitro antibacterial evaluation, MIC by broth dilution
Type: cell-based
Conditions: strain GC 4564; broth dilution, 18 hours at 35° C.
Parameter Measured: MIC Streptococcus agalactiae (GC 4564) (µg/mL)
Hi! Could you send only the number? It should be in µg/mL, unit omitted.

Known MIC Streptococcus agalactiae (GC 4564) results, listed for orientation:
Molecule	MIC Streptococcus agalactiae (GC 4564) [µg/mL]
CC(c1ccccc1)C1NC(=O)CNC(=O)C(CO)NC(=O)C(C(O)C2CNC(=N)N2C2OC(CO)C(O)C(O)C2O)NC(=O)C(C(O)C2CNC(=N)N2)NC(=O)C(Cc2ccc3oc(=O)[nH]c3c2)NC1=O (stereo not shown)	32
CC(c1ccccc1)C1NC(=O)CNC(=O)C(CO)NC(=O)C(C(O)C2CNC(=N)N2C2OC(CO)C(O)C(O)C2O)NC(=O)C(C(O)C2CNC(=N)N2)NC(=O)C(Cc2ccc(O)c(N(C)C)c2)NC1=O (stereo not shown)	128

Next up:
Please give the measured MIC Streptococcus agalactiae (GC 4564) for this molecule: CC(=O)n1cc(C2OCC3OC(OC4C(CO)OC(Oc5ccc(CC6NC(=O)C(C(C)c7ccccc7)NC(=O)CNC(=O)C(CO)NC(=O)C(C(O)C7CNC(=N)N7C7OC(CO)C(O)C(O)C7O)NC(=O)C(C(O)C7CNC(=N)N7)NC6=O)cc5)C(O)C4O)C(O)C(O)C3O2)c2ccccc21 (stereo not shown)
1

###

Test system: Staphylococcus sp.
Assay: in vitro antibacterial evaluation, MIC by broth dilution
Assay type: cell-based
Settings: broth dilution, 18 hours at 35° C.; strain GC 4541
Parameter Measured: MIC Staphylococcus aureus (GC 4541) (µg/mL)
# unit: µg/mL | format: bare number

Completed entries (count: 2):
Compound	Experimental System	MIC Staphylococcus aureus (GC 4541) / µg/mL
CC(c1ccccc1)C1NC(=O)CNC(=O)C(CO)NC(=O)C(C(O)C2CNC(=N)N2C2OC(CO)C(O)C(O)C2O)NC(=O)C(C(O)C2CNC(=N)N2)NC(=O)C(Cc2ccc(OC3OC(CO)C(OC4OC5COC(c6cccs6)OC5C(O)C4O)C(O)C3O)cc2)NC1=O (stereo not shown) [Example 132]	Staphylococcus sp.	2
CC(c1ccccc1)C1NC(=O)CNC(=O)C(CO)NC(=O)C(C(O)C2CNC(=N)N2C2OC(CO)C(O)C(O)C2O)NC(=O)C(C(O)C2CNC(=N)N2)NC(=O)C(Cc2ccc(OC3OC(CO)C(OC4OC5COC(c6ccc(C(=O)c7ccccc7)cc6)OC5C(O)C4O)C(O)C3O)cc2)NC1=O (stereo not shown) [Example 173]	Staphylococcus sp.	0.5

Now for another entry.
What MIC Staphylococcus aureus (GC 4541) value was documented for this compound, COc1ccc(COC2C(CO)OC(OC3C(CO)OC(Oc4ccc(CC5NC(=O)C(C(C)c6ccccc6)NC(=O)CNC(=O)C(CO)NC(=O)C(C(O)C6CNC(=N)N6C6OC(CO)C(O)C(O)C6O)NC(=O)C(C(O)C6CNC(=N)N6)NC5=O)cc4)C(O)C3O)C(O)C2O)cc1OCc1ccccc1 (stereo not shown) [Example 239a] ?
4

###

Tested on: Streptococcus sp.
Experiment: in vitro antibacterial evaluation, MIC by broth dilution
Type: cell-based
Conditions: broth dilution, 18 hours at 35° C.; strain GC 4565
Parameter Measured: MIC Streptococcus pneumoniae (GC 4565) (µg/mL)
Express it in µg/mL; write the number only.

Compound	MIC Streptococcus pneumoniae (GC 4565) (µg/mL)
CC(c1ccccc1)C1NC(=O)CNC(=O)C(CO[Si](C)(C)C(C)(C)C)NC(=O)C(C(O)C2CNC(=N)N2C2OC3COC(C)(C)OC3C3OC(C)(C)OC32)NC(=O)C(C(O)C2CNC(=N)N2)NC(=O)C(Cc2ccc(O)cc2)NC1=O (stereo not shown)	128
CC(c1ccccc1)C1NC(=O)CNC(=O)C(CO)NC(=O)C(C(O)C2CNC(=N)N2C2OC(CO)C(O)C(O)C2O)NC(=O)C(C(O)C2CNC(=N)N2)NC(=O)C(Cc2ccc(OC3OC(CO)C(OC4OC5COC(CC6CCCCC6)OC5C(O)C4O)C(O)C3O)cc2)NC1=O (stereo not shown)	0.12

Missing value: MIC Streptococcus pneumoniae (GC 4565), Streptococcus sp., entry CCCCCNC(=O)OCC1OC(OC2C(CO)OC(Oc3ccc(CC4NC(=O)C(C(C)c5ccccc5)NC(=O)CNC(=O)C(CO)NC(=O)C(C(O)C5CNC(=N)N5C5OC(CO)C(O)C(O)C5O)NC(=O)C(C(O)C5CNC(=N)N5)NC4=O)cc3)C(O)C2O)C(O)C(O)C1O (stereo not shown) [Example 251b] . Fill in?
1
